Measured viability at 48 h, 25 µM accompanies every entry in the list below.
Test: in vitro
Conditions: human, hek293t cells

- compound: "N#Cc1nc(-c2ccco2)oc1N1CCN(C(=O)CCl)CC1"
  viability at 48 h, 25 µM (%): 0.503
- compound: "N#CC(=Cc1ccc2c(c1)OCCO2)C(=O)NC1CCCCC1"
  viability at 48 h, 25 µM (%): 118
- compound: "O=C(CCl)N1N=C(c2cccs2)CC1c1ccccc1O (centres unmarked)"
  viability at 48 h, 25 µM (%): -0.22
- compound: "CC(Cl)C(=O)NCCc1cccs1 (centres unmarked)"
  viability at 48 h, 25 µM (%): 111
- compound: "C=CC(=O)N(Cc1cccc(F)c1F)C1CCCC(F)(F)C1 (centres unmarked)"
  viability at 48 h, 25 µM (%): 136
- compound: "C=CC(=O)N1CCC(n2cc(C(N)=O)nn2)C1 (centres unmarked)"
  viability at 48 h, 25 µM (%): 79.6
- compound: "CC(Cl)C(=O)NC1CCCCC1 (centres unmarked) [4-O06, 2-chloro-N-cyclohexylpropanamide]"
  viability at 48 h, 25 µM (%): 115
- compound: "C=CC(=O)N1CCC=C(c2cn(C(C)C)nn2)CC1"
  viability at 48 h, 25 µM (%): 78.1
- compound: "C=CC(=O)N1CCCC(CNS(=O)(=O)C2CC2)C1 (centres unmarked)"
  viability at 48 h, 25 µM (%): 50.6
- compound: "CC(Cl)C(=O)NC1CCCCC1n1cccn1 (centres unmarked)"
  viability at 48 h, 25 µM (%): 97.9
- compound: "C=CC(=O)N1CCCC(Oc2ccnc(C(=O)NC)c2)C1 (centres unmarked)"
  viability at 48 h, 25 µM (%): 99.6
